assay: chemical genetic growth profiling, strain panel (AID 1159580);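 further: tested at 20 µM; growth read once vehicle control cultures reached saturation at 30 °C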; details: S. cerevisiae deletion strains, growth OD, locus YNR049C, strain mso1, stronger effect = lower value
Screen size: about 5,500 compounds; about 2,000 (36%) were called active. Another 18% or so got no clear call; they are omitted. Some of the results follow.
Label y when normalized growth is strictly below 1; otherwise label n.

Find out if reported normalized growth for CCCc1nc(C(C)(C)O)c(C(=O)OCc2oc(=O)oc2C)n1Cc1ccc(-c2ccccc2-c2nn[nH]n2)cc1 is less than 1 y

Check CC(=O)O[C@@H]1CC2C(C)(C)[C@H](O)C[C@H](O)[C@]2(C)C2CC[C@@]3(C)C(=CC(=O)O[C@H]3c3ccoc3)[C@@]21C (some centres undefined) too. y

Check CCOc1nc2cccc(C(=O)OC(C)OC(=O)OC3CCCCC3)c2n1Cc1ccc(-c2ccccc2-c2nn[nH]n2)cc1 (centres undefined) too. n
